Test system: T-Rex 293 cell line SC3 cells lacking increased expression of androgen receptor protein
Measurement Description: Cellular growth inhibition, T-Rex 293 SC3 cells without doxycycline, CellTiter-Glo
Format: cell-based
Condition Label: 72 h, T-Rex 293 SC3 cells not exposed to doxycycline, CellTiter-Glo 2.0
Assay Readout: GI50

Cc1sc2c(c1C)C(c1ccc(N3CCN(C(=O)c4ncc(C(=O)N[C@H]5C(C)(C)[C@H](Oc6ccc(C#N)c(Cl)c6)C5(C)C)cn4)CC3)cc1)=N[C@H](Cc1ncco1)c1nnc(C)n1-2 : 500 to 1500 nM

For record COCC[C@@H]1N=C(c2ccc(CC3CC4(CCN(c5cnc(C(=O)N[C@H]6C(C)(C)[C@H](Oc7ccc(C#N)c(Cl)c7)C6(C)C)cn5)CC4)C3)cc2)c2c(sc(C)c2C)-n2c(C)nnc21 the listed GI50 is > 3000 nM

// Cc1sc2c(c1C)C(c1ccc(CC3CCN(c4ncc(C(=O)N[C@H]5C(C)(C)[C@H](Oc6ccc(C#N)c(Cl)c6)C5(C)C)cn4)CC3)cc1)=NC1(CC1)c1nnc(C)n1-2 : GI50 value = 500 to 1500 nM

Recorded GI50 (compound Cc1sc2c(c1C)C(c1ccc(OC3CC4(CCN(c5ncc(C(=O)N[C@H]6C(C)(C)[C@H](Oc7ccc(C#N)c(Cl)c7)C6(C)C)cn5)CC4)C3)cc1)=N[C@@H](Cc1ncco1)c1nnc(C)n1-2 ): < 500 nM

Documented GI50 of Cc1sc2c(c1C)C(c1ccc(N3CC(C4CCN(c5ncc(C(=O)N[C@H]6C(C)(C)[C@H](Oc7ccc(C#N)c(Cl)c7)C6(C)C)cn5)C4)C3)cc1)=N[C@@H](C)c1nnc(C)n1-2 (stereo partly drawn) : < 500 nM

Notebook: Cc1sc2c(c1C)C(c1ccc(O[C@H]3CCC4(CCCN(c5ncc(C(=O)N[C@H]6C(C)(C)[C@H](Oc7ccc(C#N)c(Cl)c7)C6(C)C)cn5)C4)C3)cc1)=N[C@@H](Cc1ncco1)c1nnc(C)n1-2 (stereo partly drawn) , GI50 read as 500 to 1500 nM
